Cited source for all entries: ChEMBL document CHEMBL5579888

study.system: Quadruplex DNA
protocol.text: Displacement of ThT from human G4-quadruplex Pu27 DNA 5'- TGGGGAGGGTGGGGAGGGTGGGGAAGG-3' incubated for 0.5 hrs by SpectraMax M2 microplate reader analysis
Type: nucleic-acid assay
Doc: threshold 300 nM (exclusive). Items with DC50 beneath it return Condition met; others return Condition not met.

smiles.entry	label.value
COc1ccc2c(c[n+](C)c3c4cc5c(cc4ccc23)OCO5)c1OC	Condition not met
c1c2c(cc3c1OCO3)-c1cc3ccc4c(c3c[n+]1CC2)OCO4	Condition met
C[n+]1cc2c3c(ccc2c2ccc4cc5c(cc4c21)OCO5)OCO3	Condition met
COc1cc2c[n+](C)c3c4cc5c(cc4ccc3c2cc1OC)OCO5	Condition not met
COc1ccc2cc3[n+](cc2c1OC)CCc1cc2c(cc1-3)OCO2	Condition not met

* * *

study.system: Quadruplex DNA
protocol.text: Displacement of ThT from human G4-quadruplex c-kit2 DNA 5'- CGGGCGGGCGCGAGGGAGGGT-3' incubated for 0.5 hrs by SpectraMax M2 microplate reader analysis
Assay type: nucleic-acid assay
Below: a set of entries, each annotated with reported DC50.

smiles.entry	display.unit	DC50
COc1ccc2cc3[n+](cc2c1OC)CCc1cc2c(cc1-3)OCO2	nM	690
COc1cc2c[n+](C)c3c4cc5c(cc4ccc3c2cc1OC)OCO5	nM	1050
COc1ccc2c(c[n+](C)c3c4cc5c(cc4ccc23)OCO5)c1OC	nM	550
c1c2c(cc3c1OCO3)-c1cc3ccc4c(c3c[n+]1CC2)OCO4	nM	170
C[n+]1cc2c3c(ccc2c2ccc4cc5c(cc4c21)OCO5)OCO3	nM	250

* * *

study.system: Quadruplex DNA
protocol.text: Displacement of ThT from human G4-quadruplex Oxy28 DNA 5'- GGGGTTTTGGGGTTTTGGGGTTTTGGGG -3' incubated for 0.5 hrs by SpectraMax M2 microplate reader analysis
Type: nucleic-acid assay

smiles.entry	DC50 (nM)
C[n+]1cc2c3c(ccc2c2ccc4cc5c(cc4c21)OCO5)OCO3	740
COc1cc2c[n+](C)c3c4cc5c(cc4ccc3c2cc1OC)OCO5	1980
COc1ccc2cc3[n+](cc2c1OC)CCc1cc2c(cc1-3)OCO2	3100
COc1ccc2c(c[n+](C)c3c4cc5c(cc4ccc23)OCO5)c1OC	1150
c1c2c(cc3c1OCO3)-c1cc3ccc4c(c3c[n+]1CC2)OCO4	580

* * *

study.system: Quadruplex DNA
protocol.text: Binding affinity to human G4-quadruplex VEGF DNA 5'- GGGCGGGCCGGGGGCGGG-3' assessed as change in fluorescence intensity at 1 uM incubated for 0.5 hrs in presence of different concentrations of DNA by fluorescence spectra analysis
Assay type: nucleic-acid assay
pKd: −log10 of the molar value.

compound	study.system	pKd
c1c2c(cc3c1OCO3)-c1cc3ccc4c(c3c[n+]1CC2)OCO4 [COPTISINE]	Quadruplex DNA	5.47
COc1ccc2cc3[n+](cc2c1OC)CCc1cc2c(cc1-3)OCO2 [BERBERINE]	Quadruplex DNA	5.30

* * *

study.system: dsDNA
protocol.text: Binding affinity to double stranded DNA ssab1 (unknown origin) incubated for 0.5 hrs in presence of different concentration DNA by fluorescence spectra analysis
Format: nucleic-acid assay

compound	study.system	EC50 [µM]
COc1ccc2c(c[n+](C)c3c4cc5c(cc4ccc23)OCO5)c1OC [CHELERYTHRINE]	dsDNA	0.97
c1c2c(cc3c1OCO3)-c1cc3ccc4c(c3c[n+]1CC2)OCO4 [COPTISINE]	dsDNA	9.39
C[n+]1cc2c3c(ccc2c2ccc4cc5c(cc4c21)OCO5)OCO3 [SANGUINARIUM]	dsDNA	0.79
COc1ccc2cc3[n+](cc2c1OC)CCc1cc2c(cc1-3)OCO2 [BERBERINE]	dsDNA	0.45
